Reference for the values: the supplement of paper PMC12350171

# System: P. vulgatus RND KO
# assayName: growth AUC normalised to DMSO control (median) (fraction of control); higher = less growth inhibition, active = hit call of the paper
# protocolConditions: 20 µM
Counter-ions that a name gives are not always drawn.
readoutKind: growth AUC normalised to DMSO control
Please state the value as a number alone, without comment.

For the compound CC(CNC1CCCCC1)OC(=O)c1ccccc1 (stereo not given) [Hexylcaine hydrochloride] , what growth AUC normalised to DMSO control is on record? 1

Would you kindly repeat that for CCc1oc2ccccc2c1C(=O)c1ccc(O)cc1 [Benzarone] ? 0.881

Would you kindly repeat that for Clc1ccccc1C(c1ccccc1)(c1ccccc1)n1ccnc1 [Clotrimazole] ? 0.952

Would you kindly repeat that for C[C@H]1COc2c(N3CCN(C)CC3)c(F)cc3c(=O)c(C(=O)O)cn1c23 [Levofloxacin] ? 0.014

Would you kindly repeat that for CC1=NN(c2ccccc2)C(=O)C1 [Edaravone] ? 0.998

* * *

# System: Vibrio cholerae
# assayName: growth AUC normalised to DMSO control (fraction of control); higher = less growth inhibition, active = hit call of the paper
# protocolConditions: 20 µM
Structures can show the parent of a compound that is named as a salt.
Can you answer with just one of these options? active, inactive

Query: recorded result category for CCc1cc(C(N)=S)ccn1 [Ethionamide] in this test inactive

Would you kindly repeat that for NC(=O)NC1NC(=O)NC1=O (centres undefined) ? inactive

Would you kindly repeat that for `Clc1ccc(Nc2nnc(Cc3ccncc3)c3ccccc23)cc1` ? inactive

Would you kindly repeat that for `CCCCc1nc(Cl)c(CO)n1Cc1ccc(-c2ccccc2-c2nnn[nH]2)cc1` ? inactive

Would you kindly repeat that for `CC(=O)N[C@@H](CC(C)C)C(=O)O` ? inactive

Would you kindly repeat that for `C[C@H](CCC(=O)O)[C@H]1CC[C@H]2[C@@H]3[C@H](O)C[C@@H]4C[C@H](O)CC[C@]4(C)[C@H]3CC[C@]12C` ? inactive

Would you kindly repeat that for `COc1ccc(NS(=O)(=O)c2ccc(N)cc2)nn1` ? inactive

Would you kindly repeat that for O=C(CCNNC(=O)c1ccncc1)NCc1ccccc1 [Nialamide] ? inactive

Would you kindly repeat that for Cn1c(=O)c2c(ncn2CC(O)CO)n(C)c1=O (centres undefined) ? inactive

Would you kindly repeat that for COc1cc([C@@H]2c3cc4c(cc3[C@@H](O[C@@H]3O[C@@H]5CO[C@@H](C)O[C@H]5[C@H](O)[C@H]3O)[C@H]3COC(=O)[C@H]23)OCO4)cc(OC)c1O [Etoposide] ? inactive

Would you kindly repeat that for CCCN[C@H]1CCc2nc(N)sc2C1 [Pramipexole dihydrochloride] ? inactive

Would you kindly repeat that for OC(CCN1CCCC1)(c1ccccc1)C1CCCCC1 (centres undefined) [Procyclidine hydrochloride] ? inactive

Would you kindly repeat that for CN(C)[C@@H]1C(=O)C(C(N)=O)=C(O)[C@@]2(O)C(=O)C3=C(O)c4c(O)ccc(Cl)c4[C@@H](O)[C@H]3C[C@@H]12 [Demeclocycline hydrochloride] ? active

Would you kindly repeat that for CNCCC(Oc1ccc(C(F)(F)F)cc1)c1ccccc1 (centres undefined) [Fluoxetine hydrochloride] ? inactive

Would you kindly repeat that for `C[C@H]1[C@H](NC(=O)/C(=N\OC(C)(C)C(=O)O)c2csc(N)n2)C(=O)N1S(=O)(=O)O` ? active

Would you kindly repeat that for Clc1cccc(Cl)c1NC1=NCCN1 [Clonidine hydrochloride] ? inactive

Would you kindly repeat that for CC(C)(C)NC[C@@H](O)COc1cccc2c1CCCC2=O [(+) Levobunolol hydrochloride] ? inactive

Would you kindly repeat that for N=C(N)NC(=O)Cc1c(Cl)cccc1Cl [Guanfacine hydrochloride] ? inactive

Would you kindly repeat that for `CCC1(c2ccccc2)C(=O)NCNC1=O` ? inactive

Would you kindly repeat that for COc1ccc2c(c1)N(C[C@H](C)CN(C)C)c1ccccc1S2 [Methotrimeprazine maleate salt] ? inactive

Would you kindly repeat that for `C/C=C(/C(=C/C)c1ccc(O)cc1)c1ccc(O)cc1` ? inactive

Would you kindly repeat that for `COc1ccccc1N1CCN(CCCCNC(=O)c2ccc3ccccc3c2)CC1` ? active

Would you kindly repeat that for CCN(CC)CCOC(=O)c1ccc(N)cc1 [Procaine hydrochloride] ? inactive

Would you kindly repeat that for `CCOc1nc2cccc(C(=O)O)c2n1Cc1ccc(-c2ccccc2-c2nnn[nH]2)cc1` ? inactive

Would you kindly repeat that for `CC[C@H]1OC(=O)[C@H](C)[C@@H](O[C@H]2C[C@@](C)(OC)[C@@H](O)[C@H](C)O2)[C@H](C)[C@@H](O[C@@H]2O[C@H](C)C[C@H](N(C)C)[C@H]2O)[C@](C)(OC)C[C@@H](C)C(=O)[C@H](C)[C@@H](O)[C@]1(C)O` ? active

Would you kindly repeat that for CCCCN(CCCC)CCC(O)c1cc2c(Cl)cc(Cl)cc2c2cc(C(F)(F)F)ccc12 (centres undefined) [Halofantrine hydrochloride] ? inactive

Would you kindly repeat that for `COc1nc(C)nc(Cl)c1NC1=NCCN1` ? inactive

Would you kindly repeat that for `COc1cc2ncnc(Nc3ccc(F)c(Cl)c3)c2cc1OCCCN1CCOCC1` ? inactive

Would you kindly repeat that for NC(=O)N1c2ccccc2CC(=O)c2ccccc21 [Oxcarbazepine] ? inactive

Would you kindly repeat that for CC(C)NCC(O)c1ccc(O)c(O)c1 (single isomer, unassigned; (+)) [(+) Isoproterenol-(+)-bitartrate salt] ? inactive

Would you kindly repeat that for C#CCN(C)CCCOc1ccc(Cl)cc1Cl [Clorgyline hydrochloride] ? active

Would you kindly repeat that for C#CCN(C)Cc1ccccc1 [Pargyline hydrochloride] ? inactive

Would you kindly repeat that for NCCCC(O)(P(=O)(O)O)P(=O)(O)O [Alendronate sodium] ? inactive

Would you kindly repeat that for `Cc1c(N)c(=O)n(-c2ccccc2)n1C` ? inactive

* * *

I'd appreciate it if you could supply growth AUC normalised to DMSO control values for the items below.
# Test system: Yersinia pseudotuberculosis
# assayName: growth AUC normalised to DMSO control (fraction of control); higher = less growth inhibition, active = hit call of the paper
# protocolConditions: 20 µM
Where a name gives a salt, the structure may show the parent alone.
Please state the value as a number alone, without comment.

For the molecule Cc1c(NC(=O)c2cccnc2)c(=O)n(-c2ccccc2)n1C [Nifenazone] , what growth AUC normalised to DMSO control is on record? 1.01

Would you kindly repeat that for CN(C)CCC(c1ccc(Cl)cc1)c1ccccn1 (centres undefined) [Chlorpheniramine maleate] ? 0.956

Would you kindly repeat that for CC#C[C@]1(O)CC[C@H]2[C@@H]3CCC4=CC(=O)CCC4=C3[C@@H](c3ccc(N(C)C)cc3)C[C@@]21C [Mifepristone] ? 1.01

Would you kindly repeat that for CC(NCCc1ccc(O)cc1)C(O)c1ccc(O)cc1 (centres undefined) [Ritodrine hydrochloride] ? 1

* * *

I'd appreciate it if you could supply growth AUC normalised to DMSO control values for the items below.
# System: P. vulgatus WT
# assayName: growth AUC normalised to DMSO control (median) (fraction of control); higher = less growth inhibition, active = hit call of the paper
# protocolConditions: 20 µM
Please state the value as a number alone, without comment.

For the compound `CN[C@H]1CC[C@@H](c2ccc(Cl)c(Cl)c2)c2ccccc21` , what growth AUC normalised to DMSO control is on record? 1.02

Would you kindly repeat that for `CCCCOC(=O)c1ccc(O)cc1` ? 1

Would you kindly repeat that for `CCC(=O)c1ccc(O)cc1` ? 0.985

Would you kindly repeat that for `Nc1nc2n[nH]nc2c(=O)[nH]1` ? 0.999

Would you kindly repeat that for C[N+](C)(CCOc1ccccc1)Cc1ccccc1.O=C([O-])c1cc2ccccc2cc1O [Bephenium hydroxynaphthoate] ? 0.991

Would you kindly repeat that for `C[C@]12CCC3=C4CCC(=O)C=C4CC[C@H]3[C@@H]1CC[C@@]2(O)CC#N` ? 1.04

Would you kindly repeat that for O=C(NCC1CCCCN1)c1cc(OCC(F)(F)F)ccc1OCC(F)(F)F (centres undefined) [Flecainide acetate] ? 1.03

Would you kindly repeat that for CC(C)(C)NCC(O)c1ccc(O)c(CO)c1 (centres undefined) ? 0.956

Would you kindly repeat that for CCN1/C(=C/C=C/C=C/c2sc3ccccc3[n+]2CC)Sc2ccccc21 [Dithiazanine iodide] ? 1.02

* * *

# Test system: Vibrio cholerae
# assayName: growth AUC normalised to DMSO control (fraction of control); higher = less growth inhibition, active = hit call of the paper
# protocolConditions: 20 µM
Counter-ions that a name gives are not always drawn.
I'd appreciate it if you could supply growth AUC normalised to DMSO control values for the items below.
Please state the value as a number alone, without comment.

Given the entry `CCOC(=O)C1=C[C@]2(CC)CCCN3CCc4c(n1c1ccccc41)[C@@H]32` , what growth AUC normalised to DMSO control was observed with Vibrio cholerae? 0.904

Would you kindly repeat that for CCN(CC)CCNC(=O)c1ccc(N)cc1 [Procainamide hydrochloride] ? 0.999

Would you kindly repeat that for `Oc1ncnc2[nH]ncc12` ? 1.02

Would you kindly repeat that for `CC(C)(Oc1ccc(Cl)cc1)C(=O)O` ? 0.986

Would you kindly repeat that for CN1CCN(C(c2ccccc2)c2ccccc2)CC1 [Cyclizine hydrochloride] ? 0.982

Would you kindly repeat that for `Cc1cccc(C)c1NC(=O)CN1CCN(CCCC(c2ccc(F)cc2)c2ccc(F)cc2)CC1` ? 1.01

Would you kindly repeat that for CC(Oc1c(Cl)cccc1Cl)C1=NCCN1 (centres undefined) ? 1.01

Would you kindly repeat that for `C=C1/C(=C\C=C2/CCC[C@]3(C)[C@@H]([C@H](C)/C=C/[C@@H](O)C4CC4)CC[C@@H]23)C[C@@H](O)C[C@@H]1O` ? 0.972

Would you kindly repeat that for CCOCCn1c(N2CCCN(C)CC2)nc2ccccc21 [Emedastine difumarate] ? 0.992
